Listed below are compounds with IC50 for ULK2 kinase (Homo sapiens), each taken from published literature.

## Input Bench note: what IC50 did Cc1nn([C@@H]2CCNC2)cc1Nc1ncc(Br)c(NCCCN2CCCCC2=O)n1 show?
## Output 100 to 500 nM

## Input Please answer likewise for CN1CCN(c2ccc(Nc3ncc(C(F)(F)F)c(NCCCNC(=O)C4CCC4)n3)c(C3CC3)c2)CC1
## Output 1 to 25 nM

## Input What do you get for Cc1nn(C2CCNCC2)cc1Nc1ncc(Cl)c(NCCCN2CCCCC2=O)n1 ?
## Output 100 to 500 nM

## Input Can you handle CN1CCC(n2cc(Nc3ncc(Cl)c(NCCCN4CCCCC4=O)n3)cn2)CC1 next?
## Output 25 to 100 nM

## Input Try the compound Cc1nn(C2CCN(C(C)C)CC2)cc1Nc1ncc(C(F)(F)F)c(NCCCN2CCOCCC2=O)n1
## Output > 500 nM

## Input Repeat for the following compound: CCN1CC[C@@H](n2cc(Nc3ncc(C(F)(F)F)c(NCCCN4CCCCC4=O)n3)c(C)n2)C1
## Output 25 to 100 nM

## Input Same again, this time with CN1CCC(n2cc(Nc3ncc(C4CC4)c(NCCCN4CCN(C)C4=O)n3)cn2)CC1
## Output > 500 nM

## Input Try this compound too: Cc1cc(C2CCN(C)CC2)ccc1Nc1ncc(C(F)(F)F)c(NCCCN2CCCCC2=O)n1
## Output 100 to 500 nM
